system.tested: hTLR8 (Homo sapiens, UniProt Q9NR97)
Sequence (Q9NR97 27-1041): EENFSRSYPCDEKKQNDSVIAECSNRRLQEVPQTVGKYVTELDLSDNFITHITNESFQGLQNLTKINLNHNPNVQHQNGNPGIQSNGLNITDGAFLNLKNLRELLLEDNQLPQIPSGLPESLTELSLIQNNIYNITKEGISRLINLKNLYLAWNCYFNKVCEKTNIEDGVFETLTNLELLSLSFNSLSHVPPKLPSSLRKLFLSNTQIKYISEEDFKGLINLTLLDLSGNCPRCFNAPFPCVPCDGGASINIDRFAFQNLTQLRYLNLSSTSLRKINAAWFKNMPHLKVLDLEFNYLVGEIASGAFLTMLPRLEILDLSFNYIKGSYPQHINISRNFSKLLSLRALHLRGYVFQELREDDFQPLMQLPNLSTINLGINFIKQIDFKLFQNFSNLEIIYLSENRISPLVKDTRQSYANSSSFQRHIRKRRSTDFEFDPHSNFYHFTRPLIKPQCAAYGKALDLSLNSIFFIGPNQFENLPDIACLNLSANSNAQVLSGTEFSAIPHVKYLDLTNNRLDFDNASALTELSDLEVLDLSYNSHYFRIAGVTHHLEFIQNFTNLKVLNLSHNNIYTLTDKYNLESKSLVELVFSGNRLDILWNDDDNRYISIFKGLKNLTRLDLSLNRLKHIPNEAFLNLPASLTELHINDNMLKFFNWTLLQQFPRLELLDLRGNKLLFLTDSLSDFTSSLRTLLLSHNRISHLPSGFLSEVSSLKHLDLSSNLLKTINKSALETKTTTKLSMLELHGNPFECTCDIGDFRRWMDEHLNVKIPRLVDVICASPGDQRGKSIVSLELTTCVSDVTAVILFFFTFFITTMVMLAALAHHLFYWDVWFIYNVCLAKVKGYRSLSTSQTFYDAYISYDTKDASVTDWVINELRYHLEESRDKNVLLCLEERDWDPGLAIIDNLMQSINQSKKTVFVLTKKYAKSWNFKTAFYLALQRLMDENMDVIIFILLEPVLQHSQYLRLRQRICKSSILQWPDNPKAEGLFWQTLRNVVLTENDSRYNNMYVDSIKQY
test: Human TLR8 Reporter Assay
experimental.conditions: HEK-Blue hTLR8 cells, 16 hours, normalized to tl8-506 (1 μM) and DMSO
property.name: EC50

Task item: Requested read-out: EC50. Entry: CCCC(Nc1nc(N)nc2cn(Cc3c(OC)cccc3OC)nc12)C(F)(F)F (centres unmarked) [Compound 124]
Reply: > 9.98 µM

Task item: Requested read-out: EC50. Entry: COc1cccc(OC)c1Cn1cc2nc(N)nc(NCC(C)O)c2n1 (centres unmarked) [Compound 49]
Reply: > 29.9 µM

Task item: Requested read-out: EC50. Entry: CNc1nc(N)nc2cn(Cc3c(OC)cccc3OC)nc12
Reply: > 9.98 µM

Task item: Requested read-out: EC50. Entry: COc1cccc(OC)c1Cn1cc2nc(N)nc(NCCC(C)C)c2n1
Reply: > 29.9 µM

Task item: Requested read-out: EC50. Entry: CCCCNc1nc(N)nc2cn(C(C)c3ccccc3OC)nc12 (centres unmarked)
Reply: > 9.98 µM

----------
Task for the reader: assign each of the following compounds its reported pEC50.
system.tested: hTLR7 (Homo sapiens)
Construct: host or cells: HEK-Blue hTLR7 cells (HEK293-derived, own knowledge)
Sequence (Q9NYK1 27-1049): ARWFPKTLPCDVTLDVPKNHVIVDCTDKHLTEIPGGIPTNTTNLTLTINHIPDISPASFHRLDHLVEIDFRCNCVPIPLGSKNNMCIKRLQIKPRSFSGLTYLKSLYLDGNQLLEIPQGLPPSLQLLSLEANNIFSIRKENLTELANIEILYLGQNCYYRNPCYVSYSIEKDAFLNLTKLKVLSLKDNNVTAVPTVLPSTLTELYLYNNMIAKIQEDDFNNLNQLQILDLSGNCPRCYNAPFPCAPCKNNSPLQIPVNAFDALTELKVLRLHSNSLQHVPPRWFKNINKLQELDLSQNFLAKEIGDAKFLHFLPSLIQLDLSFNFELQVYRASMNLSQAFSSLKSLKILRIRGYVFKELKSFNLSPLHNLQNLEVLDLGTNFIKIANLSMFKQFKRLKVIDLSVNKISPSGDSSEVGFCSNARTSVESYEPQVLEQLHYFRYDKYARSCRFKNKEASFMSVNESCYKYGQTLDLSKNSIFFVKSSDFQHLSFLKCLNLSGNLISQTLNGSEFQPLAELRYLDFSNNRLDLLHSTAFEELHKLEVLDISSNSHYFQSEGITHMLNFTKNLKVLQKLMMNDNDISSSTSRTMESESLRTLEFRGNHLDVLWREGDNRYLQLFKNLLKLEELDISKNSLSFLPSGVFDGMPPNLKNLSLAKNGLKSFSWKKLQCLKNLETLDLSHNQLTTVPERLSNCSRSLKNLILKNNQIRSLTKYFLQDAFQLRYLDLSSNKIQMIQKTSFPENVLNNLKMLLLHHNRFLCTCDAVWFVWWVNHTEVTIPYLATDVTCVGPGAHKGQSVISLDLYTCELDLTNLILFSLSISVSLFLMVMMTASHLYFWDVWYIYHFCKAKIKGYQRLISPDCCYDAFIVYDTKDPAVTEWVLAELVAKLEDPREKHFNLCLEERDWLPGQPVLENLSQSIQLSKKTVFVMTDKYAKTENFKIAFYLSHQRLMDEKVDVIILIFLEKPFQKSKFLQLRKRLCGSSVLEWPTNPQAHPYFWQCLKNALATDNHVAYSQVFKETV
test: Human TLR7 Reporter Assay
Format: cell-based
experimental.conditions: HEK-Blue hTLR7 cells, 16 hours, normalized to CL097 (6 μM) and DMSO
Formally, pEC50 is defined as -log10 of the concentration c, with c in mol/L.

Task item: Requested read-out: pEC50. Entry: CCCCNc1nc(N)nc2cn(Cc3c(OC)cc(CNC(=O)CCN4C(=O)C=CC4=O)cc3OC)nc12
Reply: 5.71

Task item: Requested read-out: pEC50. Entry: CCCCNc1nc(N)nc2cn(Cc3cncn3C3CC3)nc12
Reply: 6.03

Task item: Requested read-out: pEC50. Entry: CCCCC(CCC)Nc1nc(N)nc2cn(Cc3ccccc3OC)nc12 (stereo not shown) [Compound 19]
Reply: 6.36

Task item: Requested read-out: pEC50. Entry: C=CCN(C)Cc1nc(Cn2cc3nc(N)nc(NCCCC)c3n2)c(C)o1
Reply: 5.73

Task item: Requested read-out: pEC50. Entry: CCCCNc1nc(N)nc2cn(Cc3nc(CNC)oc3C)nc12
Reply: 5.87

Task item: Requested read-out: pEC50. Entry: COc1cccc(OC)c1Cn1cc2nc(N)nc(NCCCO)c2n1
Reply: 5.07

Task item: Requested read-out: pEC50. Entry: CCCCNc1nc(N)nc2cn(Cc3ccc(C4CCNC4)cc3OC)nc12 (stereo not shown)
Reply: 6.21

Task item: Requested read-out: pEC50. Entry: CCCCNc1nc(N)nc2cn(Cc3ccc(CN4CC(CN)C4)cc3OC)nc12
Reply: 6.60

Task item: Requested read-out: pEC50. Entry: CCCCNc1nc(N)nc2cn(Cc3ccc(C(C)N(C)CCC)cc3OC)nc12 (stereo not shown) [Compound 233]
Reply: 7.49

Task item: Requested read-out: pEC50. Entry: CCCCNc1nc(N)nc2cn(Cc3sc(C)nc3C)nc12
Reply: 6.95

Task item: Requested read-out: pEC50. Entry: CCC[C@@H](CO)Nc1nc(N)nc2cn(Cc3c(OC)cc(C(CN)N(C)CCC)cc3OC)nc12 (stereo partly shown) [Compound 223]
Reply: 5.32

Task item: Requested read-out: pEC50. Entry: CCCCNc1nc(N)nc2cn(Cc3c(OC)ccc(N)c3OC)nc12
Reply: 6.31

Task item: Requested read-out: pEC50. Entry: CCCCNc1nc(N)nc2cn(Cc3ccc(C(N)CCN)cc3OC)nc12 (stereo not shown) [Compound 229]
Reply: 5.64

Task item: Requested read-out: pEC50. Entry: CCCCNc1nc(N)nc2cn(Cc3c(OC)cccc3OCCCCC(=O)OC)nc12
Reply: 6.09

Task item: Requested read-out: pEC50. Entry: CNc1nc(N)nc2cn(Cc3c(OC)cccc3OC)nc12
Reply: 5.86

Task item: Requested read-out: pEC50. Entry: CCCCNc1nc(N)nc2cn(C(C)c3ccccc3OC)nc12 (stereo not shown)
Reply: 5.85
